Listing of entries alongside the reported growth.
System: A549/ATCC NSCLC
Experiment: NCI-60 one-dose screen, 48 h (100 = growth as untreated, 0 = no growth, -100 = all killed)
Conditions: 10 µM unless noted
Compounds without any hit were thinned out: in the full panel of roughly 83,000, 20% have a hit.
// return numeric value only (unit: %, not printed)

Clc1ccc(CO/N=C(\Cn2ccnc2)c2ccc(Cl)cc2Cl)c(Cl)c1: 7.85
COc1ccc(C2=CC(c3ccc(OC)c(OC)c3)c3c(c4ccccc4oc3=O)O2)cc1OC (centres undefined): 39.4
Nc1ncnc2n[nH]nc12: 73.4
C[C@]12CCc3nc(Nc4ccccc4F)sc3C1=CC[C@@H]1[C@@H]2CC[C@]2(C)C(=O)CC[C@@H]12: 76.7
Cc1cc(NC(=O)NCc2ccc(N3C(N)=NC(N)=NC3(C)C)cc2)ccc1S(=O)(=O)F: -3.03
CCCCN1CCCC[C@@H]1C(=O)N[C@H](C(=O)N(C)[C@H](C[C@@H](OC(C)=O)c1nc(C(=O)NC2CCC(C(=O)OC)CC2)cs1)C(C)C)C(C)C (some centres undefined): 24.2

Look up growth with A549/ATCC NSCLC for this molecule: `CCC1(C(C)C)C(=O)NC(=S)NC1=O`
95.7

Look up growth with A549/ATCC NSCLC for this molecule: `CC1=C(CN)C2=C(C)C3(CC3)[C@@](C)(O)C(=O)C2=C1`
93.5

Look up growth with A549/ATCC NSCLC for this molecule: CC12CCC=CC1CCC1C2CCC2(C)C(c3ccc(=O)oc3)CCC12O (centres undefined)
-52.1

====

Tested on: SK-MEL-28 melanoma
Assay: NCI-60 one-dose screen, 48 h (100 = growth as untreated, 0 = no growth, -100 = all killed)
Settings: 10 µM unless noted
About 83,000 compounds went through this panel and 20% of them were active in at least one assay; those are over-represented in the sample as a whole.
recorded metric: growth (%)
// return numeric value only (unit: %, not printed)

// below: answered compounds
O=C(CC1(O)C(=O)Nc2ccc(Cl)cc21)c1ccc(C(=O)NCC2CCC3(CC2)OOC2(CCCCC2)OO3)cc1 (stereo unspecified): 69.2
O=C1C(Cl)=C(N2CCOCC2)C(=O)c2ccccc21: 118
OCCCCCNC1CCCCC1: 95
COc1ccc(/C=C\c2cc(OC)c(OC)c(OC)c2)cc1OCC(=O)Nc1nc2ccc(C(F)(F)F)cc2s1: 32.9
COc1ccc(Nc2ccnc3cc(Cl)ccc23)cc1CN(CCCl)CCCl: -38.3

Query (compound): `CC1=C(CN)C2=C(C)C3(CC3)[C@@](C)(O)C(=O)C2=C1` ; field requested: growth
94.8

Query (compound): `CC(=O)O[C@H](C[C@H](C(C)C)N(C)C(=O)[C@@H](NC(=O)[C@H]1CCCN1C)C(C)C)c1nc(C(=O)N[C@@H](Cc2ccccc2)C[C@H](C)C(=O)O)c(C)s1` ; field requested: growth
61.9

Query (compound): `Cc1cc(N(CCCl)CCCl)ccc1C=Nc1ccccc1-c1ccccc1` ; field requested: growth
95.2

Query (compound): `C/C(=C\c1ccn(-c2ccc(N)cc2)n1)[C@@H]1C[C@@H]2O[C@]2(C)CCC[C@H](C)[C@H](O)[C@@H](C)C(=O)C(C)(C)[C@@H](O)CC(=O)O1` ; field requested: growth
59.4

Query (compound): `CC(C)[C@]12O[C@H]1[C@@H]1O[C@]13[C@]1(O[C@H]1C[C@H]1c4c(C(=O)c5ccccc5)oc(OC(=O)c5ccccc5)c4CC[C@@]13C)[C@@H]2O` ; field requested: growth
-69.5

Query (compound): `C/C1=C/C(=O)O[C@@H]2C[C@@H](CC[C@H](C)/C=C\C=C\CC1)O[C@@](O)([C@@H]1CSC(=O)N1CO)C2` ; field requested: growth
-31.7

Query (compound): `COC1=CC(=O)O[C@@H](/C=C/c2ccc3c(c2)OCO3)C1` ; field requested: growth
120

Query (compound): `O=C(Nc1ccc([N+](=O)[O-])cc1)C(Cl)(Cl)Cl` ; field requested: growth
103

Query (compound): `O=C1NC(=O)C(=Cc2cn(C(=O)c3ccccc3)c3ccccc23)C(=O)N1` ; field requested: growth
111

Query (compound): N#CC1(C#N)C(c2ccc(N(CCCl)CCCl)cc2)OC23CCCCC2C1(C#N)C(=N)O3 (stereo unspecified) ; field requested: growth
111
